- Target of assay: σ1 receptor (Cavia porcellus)
- Protocol text: σ1 receptor binding affinity, competition against
- Set-up: species or system guinea pig
- Stated conditions: ratio of Ki values, Table 2
Measured quantity: Selectivity ratio VAChT/ σ1

Compound	Selectivity ratio VAChT/ σ1
O=C(c1ccc(SCCF)cc1)C1CCN(C2Cc3ccccc3CC2O)CC1 (racemic) [(±)-14a]	7.0

I. O=C(c1ccc(SCCCF)cc1)C1CCN(C2Cc3ccccc3CC2O)CC1 (racemic) [(±)-14b]
II. CS(=O)(=O)c1ccc(C(=O)C2CCN(C3Cc4ccccc4CC3O)CC2)cc1 (racemic) [(±)-7]
III. CSc1ccc(C(=O)C2CCN(C3Cc4ccccc4CC3O)CC2)cc1 (racemic) [(±)-8]
IV. O[C@@H]1Cc2cccc(OCCF)c2C[C@H]1N1CCC(c2ccccc2)CC1 [(-)-FEOBV]
Challenge: Rank items: key Selectivity ratio VAChT/ σ1, increasing. // list labels; follow requested order
Response given: II, III, IV, I

* * *

- Target of assay: σ1 receptor (Cavia porcellus, UniProt Q60492)
- Sequence (Q60492 whole entry): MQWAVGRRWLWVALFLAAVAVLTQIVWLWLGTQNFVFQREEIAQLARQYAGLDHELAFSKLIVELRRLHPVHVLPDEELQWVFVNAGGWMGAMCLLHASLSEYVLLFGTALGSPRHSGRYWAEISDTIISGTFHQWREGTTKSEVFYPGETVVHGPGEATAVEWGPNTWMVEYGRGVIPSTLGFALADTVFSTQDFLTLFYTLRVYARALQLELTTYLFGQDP
- Protocol text: σ1 receptor binding affinity, competition against
- Parameters: species or system guinea pig
- Stated conditions: read-out: Ki σ1; homogenate of guinea pig brain; tested as oxalate; mean ± SD
pKi: −log10 of the molar value.
Measured quantity: pKi

A. O=C(c1ccc(SCCCF)cc1)C1CCN(C2Cc3ccccc3CC2O)CC1 (racemic) [(±)-14b]
B. CSc1ccc(C(=O)C2CCN(C3Cc4ccccc4CC3O)CC2)cc1 (racemic) [(±)-8]
Challenge: Of the two listed items, which has the higher pKi? First: A Second: B Please identify the chosen entry by its label.
Response given: B

* * *

// reported Selectivity ratio VAChT/ σ2 for each item listed
- Target of assay: σ2 receptor (Rattus norvegicus, UniProt Q5U3Y7)
- Sequence (Q5U3Y7 whole entry): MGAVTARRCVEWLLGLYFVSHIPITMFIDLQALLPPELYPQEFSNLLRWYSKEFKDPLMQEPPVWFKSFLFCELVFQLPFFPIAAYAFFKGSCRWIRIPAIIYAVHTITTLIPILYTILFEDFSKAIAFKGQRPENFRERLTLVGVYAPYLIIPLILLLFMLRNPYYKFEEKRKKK
- Protocol text: σ2 receptor binding affinity, competition against [3H]DTG
- Stated conditions: ratio of Ki values, Table 2

Compound	Selectivity ratio VAChT/ σ2
CSc1ccc(C(=O)C2CCN(C3Cc4ccccc4CC3O)CC2)cc1 (racemic) [(±)-8]	> 420

Challenge: What measured Selectivity ratio VAChT/ σ2 goes with O=C(c1ccc(SCCF)cc1)C1CCN(C2Cc3ccccc3CC2O)CC1 (racemic) [(±)-14a] ?
Response given: > 420

Challenge: Try this compound too: CS(=O)(=O)c1ccc(C(=O)C2CCN(C3Cc4ccccc4CC3O)CC2)cc1 (racemic) [(±)-7]
Response given: > 185

Challenge: // query: O=C(c1ccc(SCCCF)cc1)C1CCN(C2Cc3ccccc3CC2O)CC1 (racemic) [(±)-14b]
Response given: > 430
